OBSERVABLE: Ki

Notebook entry, D(1A) dopamine receptor (Rattus norvegicus, UniProt P18901) assay: Ki of "Cc1cccc(NC(=O)N[C@@H]2N=C(c3ccccc3)c3ccccc3N(CC(=O)c3ccccc3C)C2=O)c1" = ? > 10 µM

====

OBSERVABLE: Ki

Notebook entry, Mu-type opioid receptor (Rattus norvegicus, UniProt P33535) assay: Ki of "Cc1cccc(NC(=O)N[C@@H]2N=C(c3ccccc3)c3ccccc3N(CC(=O)c3ccccc3C)C2=O)c1" = ? > 10 µM

====

Molecular target: Histamine H1 receptor (Cavia porcellus, UniProt P31389)
Sequence (P31389 whole entry): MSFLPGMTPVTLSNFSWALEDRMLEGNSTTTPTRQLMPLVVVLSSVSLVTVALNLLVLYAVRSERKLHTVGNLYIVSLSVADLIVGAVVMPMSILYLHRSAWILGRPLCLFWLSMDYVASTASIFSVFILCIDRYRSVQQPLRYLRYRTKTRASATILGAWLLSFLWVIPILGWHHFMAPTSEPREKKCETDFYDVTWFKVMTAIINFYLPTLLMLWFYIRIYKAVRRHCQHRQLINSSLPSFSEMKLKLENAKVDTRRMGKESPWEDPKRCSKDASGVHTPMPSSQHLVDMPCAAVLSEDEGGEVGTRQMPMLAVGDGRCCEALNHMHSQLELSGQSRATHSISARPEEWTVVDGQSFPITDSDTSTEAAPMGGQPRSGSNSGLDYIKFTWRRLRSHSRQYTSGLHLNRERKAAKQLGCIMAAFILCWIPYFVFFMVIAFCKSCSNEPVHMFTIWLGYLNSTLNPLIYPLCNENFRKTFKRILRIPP
pKi: −log10 of the molar value.
OBSERVABLE: pKi

Look up pKi: "Cc1cccc(NC(=O)N[C@@H]2N=C(c3ccccc3)c3ccccc3N(CC(=O)c3ccccc3C)C2=O)c1" < 5.00

====

Molecular target: Gamma-aminobutyric acid receptor subunit alpha-1 (Rattus norvegicus, UniProt P62813)
Sequence (P62813 whole entry): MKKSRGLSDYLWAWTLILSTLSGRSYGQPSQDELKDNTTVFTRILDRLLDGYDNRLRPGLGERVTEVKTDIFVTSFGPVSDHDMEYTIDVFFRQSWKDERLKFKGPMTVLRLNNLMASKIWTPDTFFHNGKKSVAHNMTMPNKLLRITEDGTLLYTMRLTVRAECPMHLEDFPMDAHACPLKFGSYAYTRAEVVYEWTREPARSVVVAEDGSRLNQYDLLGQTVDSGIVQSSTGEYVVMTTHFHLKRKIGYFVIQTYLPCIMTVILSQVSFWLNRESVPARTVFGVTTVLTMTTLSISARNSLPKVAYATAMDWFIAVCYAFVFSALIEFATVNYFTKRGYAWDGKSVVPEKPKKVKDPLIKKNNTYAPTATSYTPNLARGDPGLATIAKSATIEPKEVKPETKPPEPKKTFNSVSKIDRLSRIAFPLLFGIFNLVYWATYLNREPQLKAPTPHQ
OBSERVABLE: Ki

Look up Ki: "Cc1cccc(NC(=O)N[C@@H]2N=C(c3ccccc3)c3ccccc3N(CC(=O)c3ccccc3C)C2=O)c1" > 10 µM

====

Biological target: Muscarinic acetylcholine receptor M2 (Rattus norvegicus, UniProt P10980)
Sequence (P10980 whole entry): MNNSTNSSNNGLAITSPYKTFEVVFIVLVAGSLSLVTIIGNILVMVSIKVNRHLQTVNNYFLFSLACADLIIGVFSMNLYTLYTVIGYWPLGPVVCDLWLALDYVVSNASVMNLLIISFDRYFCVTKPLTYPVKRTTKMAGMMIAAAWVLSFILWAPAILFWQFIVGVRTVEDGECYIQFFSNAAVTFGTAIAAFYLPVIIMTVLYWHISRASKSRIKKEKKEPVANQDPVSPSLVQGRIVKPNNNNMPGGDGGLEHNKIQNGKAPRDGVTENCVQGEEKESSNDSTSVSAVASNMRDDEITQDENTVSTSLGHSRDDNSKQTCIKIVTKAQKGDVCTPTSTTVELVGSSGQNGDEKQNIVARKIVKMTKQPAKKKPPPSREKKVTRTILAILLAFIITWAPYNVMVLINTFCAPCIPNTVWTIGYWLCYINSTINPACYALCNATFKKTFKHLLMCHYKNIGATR
pKi: −log10 of the molar value.
OBSERVABLE: pKi

Look up pKi: "Cc1cccc(NC(=O)N[C@@H]2N=C(c3ccccc3)c3ccccc3N(CC(=O)c3ccccc3C)C2=O)c1" < 5.00
